B1: library; numbered along this chain (parent)
chain: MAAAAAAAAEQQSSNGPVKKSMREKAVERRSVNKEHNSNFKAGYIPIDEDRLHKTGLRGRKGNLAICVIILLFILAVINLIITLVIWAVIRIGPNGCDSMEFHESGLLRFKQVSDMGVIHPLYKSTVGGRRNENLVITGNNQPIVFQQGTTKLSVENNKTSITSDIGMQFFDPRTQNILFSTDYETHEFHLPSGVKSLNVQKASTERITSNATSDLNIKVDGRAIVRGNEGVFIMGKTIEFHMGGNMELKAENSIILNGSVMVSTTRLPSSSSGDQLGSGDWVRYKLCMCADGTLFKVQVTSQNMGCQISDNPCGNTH

# Variants of: B1
# Assay: SGCB cell-surface expression functional score (HA stain, bin4 vs bin1, normalised to synonymous) (log10 ratio); higher = more cell-surface SGCB (functional)
Class label 1: SGCB cell-surface expression functional score (log10) at least -0.1. Class label 0: SGCB cell-surface expression functional score (log10) below -0.1.

- Mutant: "T150C"
  Answer Label: "label 1"
- Mutant: "Y123L"
  Answer Label: "label 1"
- Mutant: "V220R"
  Answer Label: "label 0"
- Mutant: "V68A"
  Answer Label: "label 1"
- Mutant: "V232E"
  Answer Label: "label 0"
- Mutant: "R227A"
  Answer Label: "label 1"
- Mutant: "I234D"
  Answer Label: "label 0"
- Mutant: "V68P"
  Answer Label: "label 1"
- Mutant: "T186V"
  Answer Label: "label 0"
- Mutant: "Q147Y"
  Answer Label: "label 0"
- Mutant: "S38P"
  Answer Label: "label 0"
- Mutant: "I208K"
  Answer Label: "label 0"
- Mutant: "E240R"
  Answer Label: "label 1"
- Mutant: "G293D"
  Answer Label: "label 1"
- Mutant: "N304S"
  Answer Label: "label 0"
- Mutant: "F189N"
  Answer Label: "label 0"
- Mutant: "R91D"
  Answer Label: "label 0"
- Mutant: "E101D"
  Answer Label: "label 0"
- Mutant: "H53I"
  Answer Label: "label 1"
- Mutant: "I69S"
  Answer Label: "label 1"
- Mutant: "T266A"
  Answer Label: "label 1"
- Mutant: "E240H"
  Answer Label: "label 1"
- Mutant: "N229E"
  Answer Label: "label 1"
- Mutant: "W87R"
  Answer Label: "label 0"
- Mutant: "L216V"
  Answer Label: "label 0"
- Mutant: "P94G"
  Answer Label: "label 0"
- Mutant: "G280W"
  Answer Label: "label 0"
- Mutant: "A291W"
  Answer Label: "label 0"
- Mutant: "T205I"
  Answer Label: "label 0"
- Mutant: "F102S"
  Answer Label: "label 0"
- Mutant: "L153R"
  Answer Label: "label 0"
- Mutant: "P121G"
  Answer Label: "label 0"
- Mutant: "N141A"
  Answer Label: "label 0"
- Mutant: "N229R"
  Answer Label: "label 1"
- Mutant: "N211H"
  Answer Label: "label 0"
- Mutant: "R91F"
  Answer Label: "label 0"
- Mutant: "R284D"
  Answer Label: "label 0"
- Mutant: "L268C"
  Answer Label: "label 0"
- Mutant: "V226H"
  Answer Label: "label 0"
- Mutant: "A8Q"
  Answer Label: "label 0"
- Mutant: "N312Y"
  Answer Label: "label 1"
- Mutant: "G280D"
  Answer Label: "label 0"
- Mutant: "N15L"
  Answer Label: "label 1"
- Mutant: "N229D"
  Answer Label: "label 1"
- Mutant: "N229C"
  Answer Label: "label 1"
